# System Under Test: PIM2 (human) (UniProt Q9P1W9)
# Sequence (Q9P1W9 whole entry, looked up): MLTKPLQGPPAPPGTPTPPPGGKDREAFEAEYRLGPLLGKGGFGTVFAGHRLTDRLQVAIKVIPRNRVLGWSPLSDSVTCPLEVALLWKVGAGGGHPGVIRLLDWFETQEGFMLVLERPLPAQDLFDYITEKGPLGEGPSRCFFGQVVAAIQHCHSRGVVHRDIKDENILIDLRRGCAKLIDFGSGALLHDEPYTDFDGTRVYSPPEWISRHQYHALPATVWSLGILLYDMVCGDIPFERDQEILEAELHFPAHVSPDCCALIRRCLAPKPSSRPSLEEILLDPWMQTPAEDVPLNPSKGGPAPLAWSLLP
# Test Method Notes: KINOMEscan competition binding
# Experimental Setup: compound 10.0 µM
Provide the recorded kinase still bound, per cent of control for the entries that follow.
One number for each entry, in %.

Please review the following examples before continuing.
Compound | kinase still bound, per cent of control [%]
C=CC(=O)Nc1cc(NC(=O)c2ccc(C)c(NC(=O)c3ccno3)c2)cc(C(F)(F)F)c1 | 96
Cn1c(=O)n(-c2ccc(C(C)(C)C#N)cc2)c2c3cc(-c4cnc5ccccc5c4)ccc3ncc21 | 100
COc1cc(C(=O)NC2CCN(C)CC2)ccc1Nc1ncc2c(n1)N(C1CCCC1)C(C)CC(=O)N2C (stereo not given) | 100

List reported kinase still bound, per cent of control for each of these compounds:
1. OCCCNc1cc(-c2ccnc(Nc3cccc(Cl)c3)n2)ccn1
2. O=C1Nc2ccc(I)cc2/C1=C/c1cc(Br)c(O)c(Br)c1
3. O=C(NOC[C@H](O)CO)c1ccc(F)c(F)c1Nc1ccc(I)cc1F
4. CCOc1cc2ncc(C#N)c(Nc3ccc(OCc4ccccn4)c(Cl)c3)c2cc1NC(=O)/C=C/CN(C)C
5. N#Cc1c(NC(=O)c2cccc3ccccc23)sc2c1CCCC2
6. COc1cc(C(=O)NC2CCN(C)CC2)ccc1Nc1ncc2c(n1)N(C1CCCC1)CCC(=O)N2C(C)C
7. Cc1ccc2nc(NCCN)c3ncc(C)n3c2c1
8. Nc1ccc(-c2ccc3ncc4ccc(=O)n(-c5cccc(C(F)(F)F)c5)c4c3c2)cn1

Outgoing:
[100, 2.1, 75, 100, 69, 100, 100, 100]

List reported kinase still bound, per cent of control for each of these compounds:
1. Cc1cc([C@@H](C)Nc2ccccc2C(=O)O)c2nc(N3CCOCC3)cc(=O)n2c1
2. COc1cc(N2CCN(C)CC2)ccc1Nc1nc(N)c(C(=O)c2c(Cl)cccc2Cl)s1
3. O=C(NC1CC1)c1cccc(-c2ccc3c(NC(=O)C4CC4)n[nH]c3c2)c1
4. O=C(O)c1ccc(Nc2ncc3c(n2)-c2ccc(Cl)cc2C(c2c(F)cccc2F)=NC3)cc1
5. CCCS(=O)(=O)Nc1ccc(F)c(C(=O)c2c[nH]c3ncc(-c4ccc(Cl)cc4)cc23)c1F
6. Cc1ccc(C(=O)Nc2cccc(C(F)(F)F)c2)cc1Nc1cncc(C(N)=O)c1
7. CCN1CCN(Cc2ccc(Nc3ncc4c(n3)N(C)c3ccccc3C(=O)N4C)cc2C(F)(F)F)CC1
8. CN(C)C/C=C/C(=O)Nc1cccc(Nc2ncc3c(n2)N(C)c2ccccc2C(=O)N3C)c1

Outgoing:
1: 70; 2: 100; 3: 100; 4: 36; 5: 96; 6: 100; 7: 30; 8: 100
